Attribution: patent US20150086555A1

- Assayed system: recombinant soluble homotrimeric HA of A/chicken/Vietnam/NCVD-016/08 (H5N1) (Influenza A virus A/chicken/Vietnam/NCVD-016/2008(H5N1))
- Procedure text: HA microarray, BCC supernatant
- Conditions: remark: other sources report otherwise
Metric: Trimeric HA Binding: RLU
Number first, unit second.

The value of Trimeric HA Binding: RLU measured for the binder TCN-540 (5060_F05) (antibody, V domains shown) VH: QVQLVQSGGGVVQPGRSLRLSCAASGFTFSSYAMHWVRQAPGKGLEWVAIISYDGNDQYYTDSVKGRFTISRDSSKVYLQMHRLRPEDTAVYYCAKEFETSGYFHGSFDYWGQGILVTVSS VL: QSALTQPASVSGSPGQSITISCTGTSSDVGGYNYVSWYQQHPGKAPKLLIYEVTNWPSGVSNRFSGSKSGNTASLTISGLQAEDEADYYCSSYAGSSTWVFGGGTRVTVL turned out to be 70 RLU

Trimeric HA Binding: RLU measured on TCN-546 (5089_L08) (antibody, V domains shown) VH: QVQLQQWGAGLLKPSETLSLTCGVYGGSLSDYYWSWIRQPPGKGLEWIGEINHSGGTNYNPSLKRRVTISVDTSKKQFSLKMNSVTAADTAVYYCARGTDPDTEVYCRAGNCAAFDFWGQGTLVTVSS VL: EIVLTQSPGTLSLSPGERATLSCRASHFVIGRAVAWYQQKPGQAPRLLIYGASSRATGIPDRFSGSGSGTDFTLTISRLETEDFAVFYCQHYGSSPRYAFGQGTKLEIK = 421 RLU
